- Test system: oxytocin receptor (Homo sapiens, UniProt P30559)
- Sequence (P30559 whole entry, species assumed): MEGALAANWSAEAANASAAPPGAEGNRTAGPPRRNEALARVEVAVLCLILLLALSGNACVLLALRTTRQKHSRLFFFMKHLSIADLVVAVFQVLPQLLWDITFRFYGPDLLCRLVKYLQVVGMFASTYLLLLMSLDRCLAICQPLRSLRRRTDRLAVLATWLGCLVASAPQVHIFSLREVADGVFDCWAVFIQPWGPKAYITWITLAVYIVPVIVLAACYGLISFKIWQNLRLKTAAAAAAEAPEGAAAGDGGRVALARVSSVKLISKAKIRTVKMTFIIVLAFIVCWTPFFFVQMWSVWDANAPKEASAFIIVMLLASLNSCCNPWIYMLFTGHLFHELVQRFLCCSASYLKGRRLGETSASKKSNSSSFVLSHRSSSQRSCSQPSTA
- Method: IP-One IP1 accumulation assay in CHO cell lines expressing oxytocin receptor (agonism)
- Applied conditions: CHO cells expressing oxytocin receptor, n = 3, read-out: OT-R EC50
- Description: The activation constants (EC50 in nM) were measured in CHO cell lines expressing oxytocin receptor by IP-One IP1 accumulation assay. These values are the mean±SEM of at least three separate experiments performed in triplicate.
Quantity: EC50 (nM)
Give the value, in units of nM, as a plain number.

For reference, reported EC50 for Cc1cc(C(=O)N2Cc3cnn(C)c3Nc3ccccc32)ccc1CNC(=O)N1CC(OCCC2NC(=O)NC2=O)CC1C(=S)N(C)C (stereo not drawn) stands at 14.4

For reference, reported EC50 for Cc1cc(C(=O)N2Cc3cnn(C)c3Nc3ccccc32)ccc1CNC(=O)N1C[C@H](OCc2nnn[nH]2)C[C@H]1C(=S)N(C)C stands at 17.4

For reference, reported EC50 for Cc1cc(C(=O)N2Cc3cnn(C)c3Nc3ccccc32)ccc1CNC(=O)N1C[C@H](OCCCCO)C[C@H]1C(=S)N(C)C stands at 11.6

For reference, reported EC50 for Cc1cc(C(=O)N2Cc3cnn(C)c3Nc3ccccc32)ccc1CNC(=O)N1C[C@H](OCCCO)C[C@H]1C(=S)N(C)C stands at 29.8

For reference, reported EC50 for Cc1cc(C(=O)N2Cc3cnn(C)c3Nc3ccccc32)ccc1CNC(=O)N1C[C@H](OCc2cccc(S(N)(=O)=O)c2)C[C@H]1C(=S)N(C)C stands at 33

For reference, reported EC50 for CO[C@@H]1C[C@@H](C(=S)N(C)C)N(C(=O)NCc2ccc(C(=O)N3Cc4cnn(C)c4Nc4ccccc43)cc2C)C1 stands at 33
